Form: system (human chemokine receptor CCR3 (Homo sapiens)), quantity (Ki), values below.
Reply numerically in nM, unit not repeated.

Study these solved cases before continuing.
compound="Cc1cc(CN2CCC(N3C(=O)CC[C@@H]3C(=O)Nc3cccc(C(=O)N4CCCCC4CO)c3)CC2)ccc1Cl (some centres unmarked)" tested_target="human chemokine receptor CCR3 (Homo sapiens)" u=nM data_value=12
compound=Cc1cc(CN2CCC(N3C(=O)N(C)C[C@@H]3C(=O)Nc3cccc(-c4ccncc4)c3)CC2)ccc1Cl tested_target="human chemokine receptor CCR3 (Homo sapiens)" u=nM data_value=35
compound=Cc1cc(CN2CCC(N3C(=O)CC[C@@H]3C(=O)Nc3cccnc3)CC2)ccc1Cl tested_target="human chemokine receptor CCR3 (Homo sapiens)" u=nM data_value=159

# compound Cc1cc(CN2CCC(N3C(=O)CC[C@@H]3C(=O)Nc3cccc(-c4ccn(C)n4)c3)CC2)ccc1Cl ; its Ki = 12

# compound COc1cccc2c1CN(C(=O)[C@@H]1CCC(=O)N1C1CCN(Cc3ccc(Cl)c(C)c3)CC1)CC2 ; its Ki = 235

# compound COC(=O)c1csc(NC(=O)[C@H]2CCC(=O)N2C2CCN(Cc3ccc(Cl)c(C)c3)CC2)n1 ; its Ki = 67

# compound CNC(=O)N1CCc2cc(NC(=O)[C@H]3CCC(=O)N3C3CCN(Cc4ccc(Cl)c(C)c4)CC3)ccc21 ; its Ki = 175

# compound Cc1cc(CN2CCC(N3C(=O)CC[C@@H]3C(=O)Nc3cccc(N4CCNC4=O)c3)CC2)ccc1Cl ; its Ki = 5

# compound Cc1cc(CN2CCC(N3C(=O)CC[C@@H]3C(=O)N3CCc4ccc([N+](=O)[O-])cc4C3)CC2)ccc1Cl ; its Ki = 927

# compound CNC(=O)c1cccc(NC(=O)[C@H]2CCC(=O)N2C2CCN(Cc3ccc(F)cc3)CC2)c1 ; its Ki = 390

----------
Documented inhibition at 1 µM across a set of compounds
molecular target: human chemokine receptor CCR3 (Homo sapiens); construct: expressed in transfected cells; host or cells: K562 cell line (hCCR3-C1 cells), membrane preparation; assay: CCR3 receptor binding assay (SPA, 125I-eotaxin-1 displacement, hCCR3-C1 K562 cell membranes); details: 1 μM test compound; human Eotaxin-1 at human CCR3-Rezeptor; read-out: CCR3 % inh @ 1 μM
Sequence (P51677 whole entry): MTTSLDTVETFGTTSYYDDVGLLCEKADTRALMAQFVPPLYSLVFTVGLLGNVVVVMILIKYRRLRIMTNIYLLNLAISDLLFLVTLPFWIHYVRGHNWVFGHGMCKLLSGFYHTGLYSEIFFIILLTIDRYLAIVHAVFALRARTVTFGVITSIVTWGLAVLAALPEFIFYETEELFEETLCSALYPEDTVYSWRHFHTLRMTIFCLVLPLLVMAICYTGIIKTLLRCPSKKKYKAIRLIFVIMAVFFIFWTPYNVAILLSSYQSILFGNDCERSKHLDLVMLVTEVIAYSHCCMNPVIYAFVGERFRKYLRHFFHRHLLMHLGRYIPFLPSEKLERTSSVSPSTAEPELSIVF
Reply numerically in %, unit not repeated.

Study these solved cases before continuing.
compound=CCOC(=O)c1nnc(NC(=O)[C@H]2CCC(=O)N2C2CCN(Cc3ccc(Cl)c(C)c3)CC2)s1 data_value=75
compound=Cc1cc(CN2CCC(N3C(=O)CC[C@H]3C(=O)N3Cc4ccccc4C(C)(C)C3)CC2)ccc1Cl data_value=57
compound=COC(=O)c1csc(NC(=O)[C@H]2CCC(=O)N2C2CCN(Cc3ccc(Cl)c(C)c3)CC2)n1 data_value=91

# compound Cc1cc(CN2CCC(N3C(=O)CC[C@@H]3C(=O)Nc3cc(C(=O)N(C)C)ccn3)CC2)ccc1Cl ; its inhibition at 1 µM = 99

# compound Cc1cc(-c2nc[nH]n2)cc(NC(=O)C2CCC(=O)N2C2CCN(Cc3ccc(Cl)c(C)c3)CC2)n1 (stereo not shown) ; its inhibition at 1 µM = 96

# compound Cc1cc(CN2CCC(N3C(=O)CC[C@@H]3C(=O)Nc3cccc(N4CCCCC4)c3)CC2)ccc1Cl ; its inhibition at 1 µM = 98

# compound CCN(CC)C(=O)c1cccc(NC(=O)[C@H]2CCC(=O)N2C2CCN(Cc3ccc(Cl)c(C)c3)CC2)c1 ; its inhibition at 1 µM = 99

# compound Cc1cc(CN2CCC(N3C(=O)CC[C@@H]3C(=O)Nc3cccc(C(=O)NC[C@@H]4CCCO4)c3)CC2)ccc1Cl ; its inhibition at 1 µM = 97

# compound Cc1cc(CN2CCC(N3C(=O)CC[C@@H]3C(=O)Nc3cccc(N(CC(=O)N(C)C)S(C)(=O)=O)c3)CC2)ccc1Cl ; its inhibition at 1 µM = 99

# compound Cc1cc(CN2CCC(N3C(=O)CC[C@@H]3C(=O)Nc3ccc4c(c3)CC(N(C)C)C4)CC2)ccc1Cl (stereo partly shown) ; its inhibition at 1 µM = 60

# compound CNC(=O)c1cccc(NC(=O)[C@H]2CCC(=O)N2C2CCN(Cc3ccc(Cl)c(C)c3)CC2)c1 ; its inhibition at 1 µM = 95

# compound Cc1cc(CN2CCC(N3C(=O)CC[C@@H]3C(=O)N(C)c3ccccc3)CC2)ccc1Cl ; its inhibition at 1 µM = 24

# compound Cc1cc(CN2CCC(N3C(=O)CC[C@@H]3C(=O)Nc3cccc(CNC(=O)NC4CCCCC4)c3)CC2)ccc1Cl ; its inhibition at 1 µM = 80

# compound CNC(=O)c1cccc(NC(=O)[C@H]2CCC(=O)N2C2CCN(Cc3cc(Br)cs3)CC2)c1 ; its inhibition at 1 µM = 75

# compound CNC(=O)c1cc(NC(=O)[C@H]2CCC(=O)N2C2CCN(Cc3ccc(Cl)c(C)c3)CC2)cc(OC)c1 ; its inhibition at 1 µM = 99

# compound CNC(=O)c1cccc(NC(=O)[C@H]2CN(C)C(=O)N2C2CCN(Cc3ccc(Cl)c(C)c3)CC2)c1 ; its inhibition at 1 µM = 89

# compound Cc1cc(CN2CCC(N3C(=O)CC[C@@H]3C(=O)N3CCc4ccccc43)CC2)ccc1Cl ; its inhibition at 1 µM = 71

# compound CCn1cc(NC(=O)[C@H]2CCC(=O)N2C2CCN(Cc3ccc(Cl)c(C)c3)CC2)cc1C(=O)NC ; its inhibition at 1 µM = 98

# compound Cc1cc(CN2CCC(N3C(=O)N(C)C[C@H]3C(=O)Nc3cc(C(C)(C)C)no3)CC2)ccc1Cl ; its inhibition at 1 µM = 93
